molecular target: Integrin alpha-4/beta-1 (Homo sapiens, UniProt P05556+P13612); experiment: Inhibitory activity against very late antigen-4 (VLA-4) using VCAM-Ig ligand.; type: protein-complex assay
Sequence (P05556 whole entry): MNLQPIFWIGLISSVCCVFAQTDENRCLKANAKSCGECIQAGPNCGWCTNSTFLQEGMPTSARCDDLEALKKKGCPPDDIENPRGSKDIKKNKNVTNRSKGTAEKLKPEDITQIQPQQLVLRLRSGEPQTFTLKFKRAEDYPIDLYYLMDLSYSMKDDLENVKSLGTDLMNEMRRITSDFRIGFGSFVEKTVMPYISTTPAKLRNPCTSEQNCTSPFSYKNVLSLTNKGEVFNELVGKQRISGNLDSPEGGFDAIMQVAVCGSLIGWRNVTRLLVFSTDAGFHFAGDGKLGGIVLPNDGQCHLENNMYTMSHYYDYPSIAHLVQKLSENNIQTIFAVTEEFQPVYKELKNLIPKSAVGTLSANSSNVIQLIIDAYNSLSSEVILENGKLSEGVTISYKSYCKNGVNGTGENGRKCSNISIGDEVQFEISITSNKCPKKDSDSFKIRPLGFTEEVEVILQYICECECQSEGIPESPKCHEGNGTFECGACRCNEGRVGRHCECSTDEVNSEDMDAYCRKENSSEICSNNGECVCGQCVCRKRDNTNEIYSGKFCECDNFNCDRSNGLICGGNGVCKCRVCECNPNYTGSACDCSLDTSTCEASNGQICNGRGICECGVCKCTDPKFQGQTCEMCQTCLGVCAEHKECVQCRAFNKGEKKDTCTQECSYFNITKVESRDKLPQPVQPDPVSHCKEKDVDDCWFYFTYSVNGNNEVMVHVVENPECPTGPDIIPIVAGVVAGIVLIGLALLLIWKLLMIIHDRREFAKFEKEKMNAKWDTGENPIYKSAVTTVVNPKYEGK
Sequence (P13612 whole entry): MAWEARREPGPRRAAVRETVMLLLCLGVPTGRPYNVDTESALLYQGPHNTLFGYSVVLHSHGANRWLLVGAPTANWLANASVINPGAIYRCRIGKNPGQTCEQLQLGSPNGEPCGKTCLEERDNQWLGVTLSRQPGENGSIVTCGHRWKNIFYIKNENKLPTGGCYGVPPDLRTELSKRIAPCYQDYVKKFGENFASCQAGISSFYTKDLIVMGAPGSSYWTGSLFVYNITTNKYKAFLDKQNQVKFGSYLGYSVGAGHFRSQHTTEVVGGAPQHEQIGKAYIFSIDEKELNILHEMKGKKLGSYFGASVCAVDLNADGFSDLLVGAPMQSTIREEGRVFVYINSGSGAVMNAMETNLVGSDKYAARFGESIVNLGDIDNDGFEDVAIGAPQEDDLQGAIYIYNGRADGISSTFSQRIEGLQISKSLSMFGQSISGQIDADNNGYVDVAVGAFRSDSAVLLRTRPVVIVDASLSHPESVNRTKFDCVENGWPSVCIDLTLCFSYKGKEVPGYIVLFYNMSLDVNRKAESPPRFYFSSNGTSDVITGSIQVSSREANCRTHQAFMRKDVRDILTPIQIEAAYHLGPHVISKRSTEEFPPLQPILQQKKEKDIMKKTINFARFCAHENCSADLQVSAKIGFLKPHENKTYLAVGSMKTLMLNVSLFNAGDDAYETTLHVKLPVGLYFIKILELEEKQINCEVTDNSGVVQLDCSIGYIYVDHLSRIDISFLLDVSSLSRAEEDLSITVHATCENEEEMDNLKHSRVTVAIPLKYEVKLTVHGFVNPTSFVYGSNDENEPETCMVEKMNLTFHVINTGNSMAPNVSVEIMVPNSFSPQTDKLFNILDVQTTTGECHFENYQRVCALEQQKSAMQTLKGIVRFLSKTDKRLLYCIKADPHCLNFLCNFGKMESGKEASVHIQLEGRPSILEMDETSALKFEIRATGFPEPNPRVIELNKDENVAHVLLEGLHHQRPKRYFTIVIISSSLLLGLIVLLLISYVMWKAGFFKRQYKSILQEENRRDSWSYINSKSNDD
Consider the following molecules; for each one, report its pIC50.
Answers are plain numbers, as −log10 of the molar value.

smilesStr	experimentalTarget	pIC50
O=C(O)[C@H](Cc1cccc(F)c1)NC(=O)[C@@H]1CCCN1S(=O)(=O)c1cc(Cl)cc(Cl)c1	Integrin alpha-4/beta-1 (Homo sapiens, UniProt P05556+P13612)	9.17

Hey, can you go through the list below and give me pIC50 for every item?
1. O=C(O)[C@H](Cc1ccc([N+](=O)[O-])cc1)NC(=O)[C@@H]1CCCN1S(=O)(=O)c1cc(Cl)cc(Cl)c1
2. O=C(O)[C@H](Cc1ccc(F)c(F)c1)NC(=O)[C@@H]1CCCN1S(=O)(=O)c1cc(Cl)cc(Cl)c1
3. C[C@@]1(C(=O)N[C@@H](Cc2ccc(O)cc2)C(=O)O)CCCN1S(=O)(=O)c1cc(Cl)cc(Cl)c1
4. C[C@@]1(C(=O)N[C@@H](Cc2cccs2)C(=O)O)CCCN1S(=O)(=O)c1cc(Cl)cc(Cl)c1

// result
1. 9.52
2. 9.32
3. 9.07
4. 8.79

For each of the items listed, what is its pIC50?
1. O=C(O)[C@H](Cc1ccccn1)NC(=O)[C@@H]1CCCN1S(=O)(=O)c1cc(Cl)cc(Cl)c1
2. O=C(O)[C@H](Cc1ccc(OC(F)(F)F)cc1)NC(=O)[C@@H]1CCCN1S(=O)(=O)c1cc(Cl)cc(Cl)c1
3. C[C@]1(C(=O)N[C@@H](Cc2ccccc2)C(=O)O)CCCN1S(=O)(=O)c1cc(Cl)cc(Cl)c1
4. O=C(O)[C@H](Cc1ccccc1Cl)NC(=O)[C@@H]1CCCN1S(=O)(=O)c1cc(Cl)cc(Cl)c1

// result
1. 7.58
2. 9.07
3. 5.69
4. 9.00

Report pIC50 for every entry below.
1. C[C@@]1(C(=O)N[C@@H](Cc2ccccc2Cl)C(=O)O)CCCN1S(=O)(=O)c1cc(Cl)cc(Cl)c1
2. O=C(O)[C@H](Cc1cccnc1)NC(=O)[C@@H]1CCCN1S(=O)(=O)c1cc(Cl)cc(Cl)c1
3. C[C@@]1(C(=O)N[C@@H](Cc2ccccc2)C(=O)O)CCCN1S(=O)(=O)c1cc(Cl)cc(Cl)c1
4. O=C(O)[C@H](Cc1cc(F)cc(F)c1)NC(=O)[C@@H]1CCCN1S(=O)(=O)c1cc(Cl)cc(Cl)c1

// result
1. 8.74
2. 9.07
3. 9.00
4. 8.96
